Where these numbers come from: patent USRE47150

Target: T1, mouse tissue factor pathway inhibitor (TFPI) (mouse, UniProt O54819 29-289, limits assumed)
T1 construct: bought; also called mTFPI; murine TFPI
T1 sequence (looked up): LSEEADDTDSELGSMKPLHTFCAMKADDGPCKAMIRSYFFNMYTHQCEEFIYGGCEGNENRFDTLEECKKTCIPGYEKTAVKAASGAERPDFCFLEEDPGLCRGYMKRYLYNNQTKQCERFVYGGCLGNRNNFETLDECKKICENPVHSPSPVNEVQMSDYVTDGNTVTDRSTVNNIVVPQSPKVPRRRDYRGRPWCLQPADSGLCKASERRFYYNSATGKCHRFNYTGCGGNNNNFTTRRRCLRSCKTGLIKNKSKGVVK
Experiment: equilibrium ELISA
Listing of entries alongside the reported variant/wild-type.
Please respond with the number in ratio and leave the unit unwritten.

| binder | variant/wild-type, ratio |
| --- | --- |
| 4B7 HC_Y112D (Fab, V domains shown) VH: QVQLQQSGPGLVKPSQTLSLTCAISGDSVSSNSAAWSWIRQSPGRGLEWLGIIYKRSKWYNDYAVSVKSRITINPDTSKNQFSLQLNSVTPEDTAVYYCARWHSDKHWGFDDWGQGTLVTVSS VL: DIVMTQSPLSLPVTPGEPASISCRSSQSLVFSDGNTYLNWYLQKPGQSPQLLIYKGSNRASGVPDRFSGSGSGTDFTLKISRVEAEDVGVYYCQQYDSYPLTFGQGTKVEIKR | 5.7 |
| 4B7 LC_S61C (Fab, V domains shown) VH: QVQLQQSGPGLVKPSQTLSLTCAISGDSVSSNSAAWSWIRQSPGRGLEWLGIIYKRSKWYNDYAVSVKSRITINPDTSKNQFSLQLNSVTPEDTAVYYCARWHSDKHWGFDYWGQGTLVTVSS VL: DIVMTQSPLSLPVTPGEPASISCRSSQSLVFSDGNTYLNWYLQKPGQSPQLLIYKGSNRACGVPDRFSGSGSGTDFTLKISRVEAEDVGVYYCQQYDSYPLTFGQGTKVEIKR | 15.3 |

Input line: For the binder shown here, 4B7 HC_G109A LC_D33R (Fab, V domains shown) VH: QVQLQQSGPGLVKPSQTLSLTCAISGDSVSSNSAAWSWIRQSPGRGLEWLGIIYKRSKWYNDYAVSVKSRITINPDTSKNQFSLQLNSVTPEDTAVYYCARWHSDKHWAFDYWGQGTLVTVSS VL: DIVMTQSPLSLPVTPGEPASISCRSSQSLVFSRGNTYLNWYLQKPGQSPQLLIYKGSNRASGVPDRFSGSGSGTDFTLKISRVEAEDVGVYYCQQYDSYPLTFGQGTKVEIKR , give the reported variant/wild-type.
Output line: 8
